readout-name: melting point

> print(dat)
                                    molecule           result
 1                        Nc1ccccc1C(=O)CCCO      58 to 61 °C
 2            COc1ccc2c(c1)C(=O)OCN2c1ccccc1   99.5 to 101 °C
 3  CCCNC(=O)c1ccc(C)c(-c2nc(N(C)CCCN(C)C)nc3c2ccc(=O)n3-c2c(F)cccc2F)c1    104 to 109 °C
 4  COC1(c2cccc(OCc3ccc4ccccc4c3)c2)CCN(CC#N)C1 (centres undefined)      76 to 77 °C
 5       Cc1c([N+](=O)[O-])c(=O)n(C)c(=O)n1C           152 °C
 6  CC1Cc2c(N3CCC(NC(=O)OC(C)(C)C)C3)c(F)cc3c(=O)[nH]c(=O)n1c23 (centres undefined)    203 to 205 °C
 7  Cc1ccc(CCCO)c(NCc2ccc3nc(NCCCN4CCOCC4)n(Cc4cccc(Br)n4)c3c2)c1           141 °C
 8  CCN(c1ccc(N2CCN(c3ccc(OC)cc3)CC2)cc1)c1nnc(C)s1           187 °C
 9                    Cc1c(Br)nc(Br)c(=O)n1C    119 to 120 °C
10        Cc1nc(Br)n(COCc2ccccc2)c1Sc1ccccc1            55 °C
11  CC(C)Nc1cccnc1N1CCN(C(=O)c2ccc(C(=O)N3CCNCC3)cc2)CC1    175 to 176 °C
12  C[C@@H]([C@@H](O)c1ccc(OCc2ccccc2)cc1)N1C2CCC1CC(=Cc1ccccc1)C2 (relative stereo)    145 to 148 °C
13          CCOC(=O)Cc1nc(-c2ccccc2)oc1C(C)C      37 to 38 °C
14  Clc1ccc(-c2cc(C3CCN(CC4CC4)CC3)n[nH]2)cc1    176 to 178 °C
15          CC(C)(C)NC(=O)c1nc(Cl)c(Cl)[nH]1           218 °C
16  Nc1nc(-n2cc(C(=O)O)c(=O)c3cc(F)c(NCC(O)CO)c(Cl)c32)c(F)cc1F (centres undefined)    166 to 169 °C
17  CS(=O)(=O)c1c(C(=O)NN=Cc2nccs2)[nH]c2ccccc12         > 280 °C
18  C[C@@H](N1CCN(S(=O)(=O)c2ccc([N+](=O)[O-])cc2)CC1)[C@](O)(Cn1cncn1)c1ccc(F)cc1F    160 to 162 °C
19  O=C1N[C@H](/C=C/c2ccccc2)[C@@H]1N1C(=O)c2ccccc2C1=O (relative stereo)    168 to 170 °C
20  CC(=O)OC1CC2=CC(=NO)C3C4CCCC4(C)CCC3C2(C)C(OC(C)=O)C1 (centres undefined)    236 to 238 °C
21  CN1C(=O)C(C)(C)N=C(c2ccccc2F)c2c1ccc(N)c2Br    217 to 220 °C
22  O=C1CCC(CCN2CC(N3CCOCC3)C2)(c2ccc(Cl)c(Cl)c2)CN1Cc1ccc(-c2ccccc2)cc1 (centres undefined)      72 to 82 °C
23  O=C(CCCC(=O)C(F)(F)F)c1cccc(OCc2ccccc2)c1  75.3 to 80.3 °C
24      CC(C)c1nn(-c2ccc(C(F)(F)F)cn2)cc1C=O      89 to 90 °C
25  NS(=O)(=O)c1ccc(-c2cnn(Cc3ccc(F)cc3F)c(=O)c2-c2ccc(F)cc2)cc1    236 to 238 °C
26        CC(C)Oc1ccc(S(=O)(=O)N2CCCC2=O)cc1      88 to 90 °C
27          CN(c1ccc(O)cc1)c1nc2cc(Cl)ccc2o1    216 to 217 °C
28  CCC(CC)C(c1ccnn1-c1ccccc1)N(C)S(=O)(=O)c1ccc(Br)s1 (centres undefined)    116 to 118 °C
29  O=C(CCC(C(=O)O)N1C(=O)c2cccc(NCc3ccco3)c2C1=O)Nc1ccccc1 (centres undefined)    146 to 148 °C
30  Cn1ncnc1COc1nc2c(-c3ccccc3)nncc2cc1-c1ccccc1    222 to 223 °C
31          CCOc1ccccc1C1=NC(=O)C2=NC=NC2=N1    276 to 277 °C
32        COc1c(NOCc2ccc(C(C)(C)C)cc2)ccnc1C           113 °C
33  O=P1(O)Oc2c(-c3ccccc3)cc(Cl)cc2-c2ccccc21           260 °C
34  COCCNc1c([N+](=O)[O-])cnn1-c1c(Cl)cc(C(F)(F)F)cc1Cl      85 to 90 °C
35  CCOC(=O)c1cccc(NC(=O)c2cc(-c3ccc(F)cc3)oc2C)c1    171 to 172 °C
36                       CSc1cc2ncnc(Cl)c2s1    138 to 140 °C
37  CCOc1c(C(F)(F)F)cc([N+](=O)[O-])c2nc(C(F)(F)F)[nH]c12    144 to 146 °C
38  CCOC(OCC)c1nc(-c2ccc(Cl)cc2)c(F)c(N=C2C=CC(=O)C=C2)c1Cl    134 to 136 °C
39     CC(C)(C)c1ccc2c(C=O)c3ccccc3c(Cl)c2c1    143 to 147 °C

Origin of the recorded values: a melting point compilation (Tetko et al.; mined from patent text by program, amines drawn as free bases though some values may be those of a salt)
